// data source = patent US20120244120A1

target: HCK enzyme (Homo sapiens, UniProt P08631); test: HCK enzyme assay (Z'-LYTE FRET); type: biochemical; settings: 2 hr pre-incubation, ATP 15 μM
Sequence (P08631 22-526): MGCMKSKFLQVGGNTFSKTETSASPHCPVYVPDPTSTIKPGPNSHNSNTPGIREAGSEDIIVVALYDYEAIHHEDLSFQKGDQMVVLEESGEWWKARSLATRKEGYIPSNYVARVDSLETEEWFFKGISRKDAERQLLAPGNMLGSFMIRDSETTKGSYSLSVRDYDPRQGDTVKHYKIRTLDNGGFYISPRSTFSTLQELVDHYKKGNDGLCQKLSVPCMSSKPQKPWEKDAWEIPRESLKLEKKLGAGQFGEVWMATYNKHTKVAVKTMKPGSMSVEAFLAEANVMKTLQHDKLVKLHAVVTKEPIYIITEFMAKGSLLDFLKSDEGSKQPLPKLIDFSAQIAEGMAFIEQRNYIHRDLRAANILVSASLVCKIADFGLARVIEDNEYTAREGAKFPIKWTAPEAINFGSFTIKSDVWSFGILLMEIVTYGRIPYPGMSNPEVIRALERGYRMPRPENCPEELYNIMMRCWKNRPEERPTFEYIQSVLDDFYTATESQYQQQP
measured-attribute: log10(IC50) (log10 of the value in nM)
Please keep in mind that the values are log10 of IC50 expressed in nM.

Look over these answered cases.
{"smiles-string": "CNC(=O)Nc1cnccc1COc1ccc(NC(=O)Nc2cc(C(C)(C)C)nn2-c2ccc(C)cc2)c2ccccc12", "tgt": "HCK enzyme (Homo sapiens, UniProt P08631)", "reported-measurement": 2.87}
{"smiles-string": "COCCNC(=O)CNC(=O)Nc1cc(COc2ccc(NC(=O)Nc3cc(C(C)(C)C)nn3-c3ccc(C)cc3)c3ccccc23)ccn1", "tgt": "HCK enzyme (Homo sapiens, UniProt P08631)", "reported-measurement": 1.81}
{"smiles-string": "Cc1ccc(-n2nc(C(C)(C)C)cc2NC(=O)Nc2ccc(OCc3ccnc(NC(=O)CS(=O)(=O)CCN4CCOCC4)c3)c3ccccc23)cc1", "tgt": "HCK enzyme (Homo sapiens, UniProt P08631)", "reported-measurement": 2.26}
{"smiles-string": "Cc1ccc(-n2nc(C(C)(C)C)cc2NC(=O)Nc2ccc(OCCc3ccnc(NC(N)=O)c3)c3ccccc23)cc1", "tgt": "HCK enzyme (Homo sapiens, UniProt P08631)", "reported-measurement": 2.44}

Continue with the next molecule.
Given `CNC(=O)Nc1cc(COc2ccc(NC(=O)Nc3cc(C(C)(C)C)nn3-c3ccc(C)cc3)c3ccccc23)ccn1` , state its recorded log10(IC50).
1.23
